experiment: Plasma clearance at a dose of 10 mg/kg intravenous administration in mice.; type: ADME, organism-based; parameters: dose 10 mg/kg, route intravenous; conditions: mouse

{"Mol": "CC(C)(C)c1cnc(CSc2cnc(NC(=O)Cc3ccc(CNC(CO)CO)cc3)s2)o1", "clearance (mL/min/kg)": 67}

* * *

experiment: Cmax value at a dose of 10 mg/kg intravenous administration in mice.; type: ADME, organism-based; parameters: dose 10 mg/kg, route intravenous; conditions: mouse, in vivo

{"Mol": "CC(C)(C)c1cnc(CSc2cnc(NC(=O)Cc3ccc(CNC(CO)CO)cc3)s2)o1", "Cmax": "8.27 µM"}

* * *

tested on: HCT-116; test: Inhibition of HCT116 / VP35 human colon carcinoma cell proliferation; format: functional, cell-based
# IC50 per entry

{"Mol": "CCc1cnc(CSc2cnc(NC(C)=O)s2)o1", "IC50": "450 nM"}
{"Mol": "CN1CC[C@H](c2c(O)cc(O)c3c(=O)cc(-c4ccccc4Cl)oc23)[C@H](O)C1", "IC50": "17 nM"}

* * *

molecular target: Cyclin-dependent kinase 2/cyclin E (Homo sapiens); experiment: Inhibitory activity against baculovirus expressed Cyclin dependent kinase 2-cyclinE
IC50 values for the compounds below.
Property: IC50 (nM)

{"Mol": "CC(=O)Nc1ncc(SCC(=O)OCc2ccccc2)s1", "Property": "IC50", "Units Of Measure": "nM", "Qualifier Sign": "=", "Recorded Result": 340}
{"Mol": "CC(=O)Nc1ncc(SCc2cccnc2)s1", "Property": "IC50", "Units Of Measure": "nM", "Qualifier Sign": "=", "Recorded Result": 680}
{"Mol": "CCc1coc(CSc2cnc(NC(C)=O)s2)n1", "Property": "IC50", "Units Of Measure": "nM", "Qualifier Sign": "=", "Recorded Result": 200}
{"Mol": "CC(=O)Nc1ncc(SCCc2cccc3ccccc23)s1", "Property": "IC50", "Units Of Measure": "nM", "Qualifier Sign": ">", "Recorded Result": 1000}
{"Mol": "CC(C)(C)c1cnc(CSc2cnc(NC(=O)OCc3ccccc3)s2)o1", "Property": "IC50", "Units Of Measure": "nM", "Qualifier Sign": "=", "Recorded Result": 150}
{"Mol": "CC(=O)Nc1ncc(SCc2ccncc2)s1", "Property": "IC50", "Units Of Measure": "nM", "Qualifier Sign": ">", "Recorded Result": 1000}
{"Mol": "CC(=O)Nc1ncc(SCC2CCCCC2)s1", "Property": "IC50", "Units Of Measure": "nM", "Qualifier Sign": ">", "Recorded Result": 1000}
{"Mol": "CC(C)(C)c1ncc(CSc2cnc(NC(=O)Cc3ccccc3)s2)o1", "Property": "IC50", "Units Of Measure": "nM", "Qualifier Sign": "=", "Recorded Result": 3}
{"Mol": "CC(C)(C)c1cnc(CSc2cnc(NC(=O)Nc3c(F)cccc3F)s2)o1", "Property": "IC50", "Units Of Measure": "nM", "Qualifier Sign": "=", "Recorded Result": 2}
{"Mol": "CCc1cnc(CSc2cnc(NC(=O)Cc3cccnc3)s2)o1", "Property": "IC50", "Units Of Measure": "nM", "Qualifier Sign": "=", "Recorded Result": 5}
{"Mol": "CC(=O)Nc1ncc(SCC(=O)OC(C)(C)C)s1", "Property": "IC50", "Units Of Measure": "nM", "Qualifier Sign": "=", "Recorded Result": 50}
{"Mol": "CCc1cnc(CSc2cnc(NC(=O)C(C)C)s2)o1", "Property": "IC50", "Units Of Measure": "nM", "Qualifier Sign": "=", "Recorded Result": 5}
